target-or-test-system: human GPR84 receptor (Homo sapiens, UniProt Q9NQS5)
Construct: host or cells: HEK293, transient transfection
Sequence (Q9NQS5 whole entry): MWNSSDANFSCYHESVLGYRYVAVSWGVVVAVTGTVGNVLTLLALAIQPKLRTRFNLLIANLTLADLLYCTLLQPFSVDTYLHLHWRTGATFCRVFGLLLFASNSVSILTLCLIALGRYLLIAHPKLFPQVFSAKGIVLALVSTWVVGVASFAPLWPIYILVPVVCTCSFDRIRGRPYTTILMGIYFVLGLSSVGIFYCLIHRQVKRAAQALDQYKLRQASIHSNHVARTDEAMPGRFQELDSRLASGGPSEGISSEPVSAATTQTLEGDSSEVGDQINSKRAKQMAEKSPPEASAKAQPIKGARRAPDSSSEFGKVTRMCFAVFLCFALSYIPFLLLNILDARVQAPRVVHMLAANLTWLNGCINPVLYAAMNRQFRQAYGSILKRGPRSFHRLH
assay-protocol: Gαi biosensor BRET assay in HEK293 cells (antagonism of ZQ-16)
Type: cell-based
test-conditions: HEK293 cells, antagonism of 200 nmol/L ZQ-16
reported-property: IC50

> print(dat)
                                   compound                     target.or.test.system  result.value
1  CCc1cc(C#CCNC(=O)OC(C)C)ccc1-c1cn(CC2CCCCO2)nn1 (stereo not drawn)  human GPR84 receptor (Homo sapiens, UniProt Q9NQS5)     1 to 3 µM

Noted IC50 for Cc1cc(C#CCN2CCC(F)(F)CC2)ccc1-c1cn(CC2CCCCO2)nn1 (stereo not drawn) , tested on human GPR84 receptor (Homo sapiens, UniProt Q9NQS5): > 3 µM

Noted IC50 for Cc1cc(C#CC2CC2)ccc1-c1cn(CC2CCCCO2)nn1 (stereo not drawn) , tested on human GPR84 receptor (Homo sapiens, UniProt Q9NQS5): > 3 µM

Noted IC50 for C(#CC1CC1)c1cccc(-c2nnn(CC3CCCCO3)n2)c1 (stereo not drawn) , tested on human GPR84 receptor (Homo sapiens, UniProt Q9NQS5): ≤ 0.3 µM
